test: pKa of counterions and active agents; assay type: physicochemical; conditions: active vs its counterion; read-out: difference between the pKa of the active and the counterion
ASSAY ENDPOINT: pKa
One number for each entry.

Ask | Fill in pKa for record COc1ccc(-c2ccc3cc(C(=O)O)ccc3c2)cc1C12CC3CC(CC(C3)C1)C2 [Adapalene, reference compound]
Reply | 5.2
